- PROTOCOL NOTES: Cmax in Sprague-Dawley rat at 25 mg/kg, po up to 24 hrs
- Type: ADME, organism-based
- Parameters: route oral, dose 25 mg/kg, time <=24
- REPORTED CONDITIONS: in vivo
Consider the following molecules; for each one, report its Cmax.
Give the value, in units of ng/mL, as a plain number.

Inquiry: What Cmax value was documented for this molecule, `Cc1c(Oc2ccc(/C=C3\SC(=O)NC3=O)cc2)ncnc1OC1CCN(C(=O)OC(C)(C)C)CC1` ?
Reply text: 835

Inquiry: What Cmax value was documented for this molecule, `Cc1c(Oc2cccc(/C=C3\SC(=O)NC3=O)c2)ncnc1OC1CCN(C(=O)OC(C)(C)C)CC1` ?
Reply text: 4960

====

- MEASUREMENT TARGET: Glucose-dependent insulinotropic receptor (Homo sapiens)
- Sequence (whole entry): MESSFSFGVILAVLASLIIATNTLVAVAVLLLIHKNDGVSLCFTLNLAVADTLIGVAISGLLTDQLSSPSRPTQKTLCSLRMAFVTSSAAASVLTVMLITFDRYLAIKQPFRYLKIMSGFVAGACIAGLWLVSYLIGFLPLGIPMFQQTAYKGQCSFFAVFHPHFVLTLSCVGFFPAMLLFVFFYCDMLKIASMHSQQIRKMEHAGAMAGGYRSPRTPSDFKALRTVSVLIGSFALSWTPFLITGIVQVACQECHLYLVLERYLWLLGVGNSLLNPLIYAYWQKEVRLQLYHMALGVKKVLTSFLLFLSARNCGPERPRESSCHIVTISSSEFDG
- PROTOCOL NOTES: Agonist activity at human GPR119 stably transfected in CHO-K1 cells assessed as increase in cAMP stimulation after 1 hr by enzyme immunoassay relative to AR231453
- Format: functional, cell-based
- REPORTED CONDITIONS: filed as agonist
READOUT NAME: Emax
Give the number first and the unit second.

Inquiry: What Emax value was documented for this compound, `Cc1c(Oc2ccc(/C=C3\SC(=O)NC3=O)cc2)ncnc1OC1CCN(C(=O)OCc2ccccc2)CC1` ?
Reply text: 43.3%

Inquiry: What Emax value was documented for this compound, `O=C1NC(=O)/C(=C/c2ccc(Oc3cc(OC4CCN(C(=O)OCc5ccccc5)CC4)ncn3)cc2)S1` ?
Reply text: 88.3%

Inquiry: What Emax value was documented for this compound, `CCOC(=O)N1CCC(Oc2cc(Oc3ccc(/C=C4\SC(=O)NC4=O)cc3)ncn2)CC1` ?
Reply text: 51.8%

Inquiry: What Emax value was documented for this compound, `COC(=O)N1CCC(Oc2ncnc(Oc3ccc(/C=C4\SC(=O)NC4=O)cc3)c2C)CC1` ?
Reply text: 53.3%

Inquiry: What Emax value was documented for this compound, `CC(C)(C)OC(=O)N1CCC(Oc2cc(Oc3ccc(/C=C4\SC(=O)NC4=O)cc3)ncn2)CC1` ?
Reply text: 122%

Inquiry: What Emax value was documented for this compound, `CC(C)c1noc(C2CCN(c3ncnc(Nc4ccc(S(C)(=O)=O)cc4F)c3[N+](=O)[O-])CC2)n1` ?
Reply text: 100%

Inquiry: What Emax value was documented for this compound, `CC(C)(C)OC(=O)N1CCC(Oc2cc(Oc3cccc(/C=C4\SC(=O)NC4=O)c3)ncn2)CC1` ?
Reply text: 78.3%

Inquiry: What Emax value was documented for this compound, `CCOC(=O)N1CCC(Oc2ncnc(Oc3ccc(/C=C4\SC(=O)NC4=O)cc3)c2C)CC1` ?
Reply text: 141%

Inquiry: What Emax value was documented for this compound, `CC(C)COC(=O)N1CCC(Oc2cc(Oc3ccc(/C=C4\SC(=O)NC4=O)cc3)ncn2)CC1` ?
Reply text: 51%

Inquiry: What Emax value was documented for this compound, `Cc1c(Oc2ccc(/C=C3\SC(=O)NC3=O)cc2)ncnc1OC1CCN(C(=O)OC(C)(C)C)CC1` ?
Reply text: 68.8%

Inquiry: What Emax value was documented for this compound, `CC(C)COC(=O)N1CCC(Oc2cc(Oc3cccc(/C=C4\SC(=O)NC4=O)c3)ncn2)CC1` ?
Reply text: 62.4%

Inquiry: What Emax value was documented for this compound, `Cc1c(Oc2ccc(/C=C3\SC(=O)NC3=O)cc2)ncnc1OC1CCN(C(=O)OCC(C)C)CC1` ?
Reply text: 70.2%

Inquiry: What Emax value was documented for this compound, `Cc1c(Oc2cccc(/C=C3\SC(=O)NC3=O)c2)ncnc1OC1CCN(C(=O)OC(C)(C)C)CC1` ?
Reply text: 160%

Inquiry: What Emax value was documented for this compound, `Cc1c(Oc2cccc(/C=C3\SC(=O)NC3=O)c2)ncnc1OC1CCN(C(=O)OCc2ccccc2)CC1` ?
Reply text: 138%

Inquiry: What Emax value was documented for this compound, `O=C1NC(=O)/C(=C/c2cccc(Oc3cc(OC4CCN(C(=O)OCc5ccccc5)CC4)ncn3)c2)S1` ?
Reply text: 98.3%

Inquiry: What Emax value was documented for this compound, `CCOC(=O)N1CCC(Oc2cc(Oc3cccc(/C=C4\SC(=O)NC4=O)c3)ncn2)CC1` ?
Reply text: 43.3%

====

- PROTOCOL NOTES: Toxicity in female po dosed Wistar rat after 28 days
- Format: organism-based
- REPORTED CONDITIONS: in vivo, time 28 day
READOUT NAME: NOAEL at 672 h

Inquiry: What NOAEL at 672 h value was documented for this compound, `Cc1c(Oc2cccc(/C=C3\SC(=O)NC3=O)c2)ncnc1OC1CCN(C(=O)OC(C)(C)C)CC1` ?
Reply text: > 400 mg/kg

====

- PROTOCOL NOTES: Tmax in Beagle dog at 10 mg/kg, po up to 24 hrs
- Format: ADME, organism-based, Canis lupus familiaris
- REPORTED CONDITIONS: in vivo
READOUT NAME: Tmax
Give the number first and the unit second.

Inquiry: What Tmax value was documented for this molecule, `Cc1c(Oc2cccc(/C=C3\SC(=O)NC3=O)c2)ncnc1OC1CCN(C(=O)OC(C)(C)C)CC1` ?
Reply text: 3 h

====

- PROTOCOL NOTES: Elimination rate constant in Beagle dog at 10 mg/kg, po up to 24 hrs
- Format: ADME, organism-based, Canis lupus familiaris
- REPORTED CONDITIONS: in vivo
READOUT NAME: k el at 24 h (s⁻¹)
Give the value, in units of s⁻¹, as a plain number.

Inquiry: What k el at 24 h value was documented for this compound, `Cc1c(Oc2cccc(/C=C3\SC(=O)NC3=O)c2)ncnc1OC1CCN(C(=O)OC(C)(C)C)CC1` ?
Reply text: 1.11e-05

====

- PROTOCOL NOTES: Half life in Sprague-Dawley rat at 25 mg/kg, po up to 24 hrs
- Type: ADME, organism-based
- REPORTED CONDITIONS: in vivo
Consider the following molecules; for each one, report its half-life.

Inquiry: What half-life value was documented for this molecule, `Cc1c(Oc2cccc(/C=C3\SC(=O)NC3=O)c2)ncnc1OC1CCN(C(=O)OC(C)(C)C)CC1` ?
Reply text: 3.09 h

Inquiry: What half-life value was documented for this molecule, `Cc1c(Oc2ccc(/C=C3\SC(=O)NC3=O)cc2)ncnc1OC1CCN(C(=O)OC(C)(C)C)CC1` ?
Reply text: 4.37 h

====

Consider the following compounds; for each one, report its pEC50.
- MEASUREMENT TARGET: Glucose-dependent insulinotropic receptor (Homo sapiens)
- Sequence (Q8TDV5 whole entry): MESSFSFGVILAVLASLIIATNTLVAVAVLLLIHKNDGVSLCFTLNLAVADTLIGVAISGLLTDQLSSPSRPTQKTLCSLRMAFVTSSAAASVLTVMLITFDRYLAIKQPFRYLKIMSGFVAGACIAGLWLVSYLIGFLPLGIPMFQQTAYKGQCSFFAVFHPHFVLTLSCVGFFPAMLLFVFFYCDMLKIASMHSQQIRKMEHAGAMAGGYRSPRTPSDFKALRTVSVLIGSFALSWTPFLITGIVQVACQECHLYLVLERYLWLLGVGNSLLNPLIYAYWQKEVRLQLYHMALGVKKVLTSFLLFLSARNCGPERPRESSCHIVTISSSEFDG
- PROTOCOL NOTES: Agonist activity at human GPR119 stably transfected in CHO-K1 cells assessed as increase in cAMP stimulation after 1 hr by enzyme immunoassay
- Assay type: functional, cell-based
- REPORTED CONDITIONS: read-out: EC50
pEC50 here: minus log base 10 of the concentration, concentration in moles per litre.

Inquiry: What pEC50 value was documented for this compound, `CCOC(=O)N1CCC(Oc2cc(Oc3cccc(/C=C4\SC(=O)NC4=O)c3)ncn2)CC1` ?
Reply text: 6.09

Inquiry: What pEC50 value was documented for this compound, `Cc1c(Oc2ccc(/C=C3\SC(=O)NC3=O)cc2)ncnc1OC1CCN(C(=O)OCc2ccccc2)CC1` ?
Reply text: 6.09

Inquiry: What pEC50 value was documented for this compound, `CCOC(=O)N1CCC(Oc2cc(Oc3ccc(/C=C4\SC(=O)NC4=O)cc3)ncn2)CC1` ?
Reply text: 6.10
